This collection of values is drawn from patent EP4610269A1.

Overview of recorded remaining at 6 h, 9.8 µM for various compounds
# test description: Plasma stability assay (mouse plasma)
# Type: in vitro ADME
# condition context: mouse plasma (sodium citrate 3.7%), 37°C, LC-MS quantification, read-out: % intact compound remaining after 6h incubation Mouse plasma
Where a SMILES comes first, the peptide text is derived from it. Bridges are numbered along the chain shown (N, C = ends). [ ]: non-standard residue; d: D form. The star is where a group is joined. DOTA = O=C(O)CN1CCN(CC(=O)O)CCN(CC(=O)*)CCN(CC(=O)O)CC1; Hyp = O=C(O)[C@@H]1C[C@@H](O)CN1; Pentanoyl(4-Me) = CC(C)CCC(=O)*; Cit = NC(=O)NCCC[C@H](N)C(=O)O; Nva = CCC[C@H](N)C(=O)O; Hexanoyl = CCCCCC(=O)*; Pentanoyl = CCCCC(=O)*; AEEA = NCCOCCOCC(=O)O
metric: remaining at 6 h, 9.8 µM

>  <compound>
CC[C@H](C)[C@@H]1NC(=O)[C@@H](C)NC(=O)[C@@H]2CCCN2C(=O)[C@H](Cc2ccccc2)NC(=O)[C@H](Cc2ccc(O)cc2)NC(=O)[C@H](CCCCNC(=O)CN2CCN(CC(=O)O)CCN(CC(=O)O)CCN(CC(=O)O)CC2)NC(=O)[C@H](CCCNC(=N)N)NC(=O)[C@@H](NC(=O)CCC(C)C)CSSC[C@@H](C(N)=O)NC(=O)[C@H](CC(C)C)NC1=O [UPAR-176] ({Pentanoyl(4-Me)}-CRK(DOTA)YFP[dA]ILC-NH2; disulfide 1-10)

>  <result>
57%

$$$$
>  <compound>
CC[C@H](C)[C@@H]1NC(=O)[C@@H](C)NC(=O)[C@@H]2CCCN2C(=O)[C@H](Cc2ccccc2)NC(=O)[C@H](Cc2ccc(O)cc2)NC(=O)[C@H](CCC(N)=O)NC(=O)[C@@H](C)NC(=O)[C@@H](NC(=O)[C@H](CC(C)C)NC(=O)COCCOCCNC(=O)CN2CCN(CC(=O)O)CCN(CC(=O)O)CCN(CC(=O)O)CC2)CSSC[C@@H](C(N)=O)NC(=O)[C@H](CC(C)C)NC1=O [UPAR-216] ({DOTA-AEEA}-LC[dA]QYFP[dA]ILC-NH2; disulfide 2-11)

>  <result>
84%

$$$$
>  <compound>
CCCCCC(=O)N[C@@H](CC(=O)O)C(=O)N[C@@H](CC(C)C)C(=O)N[C@H]1CSSC[C@@H](C(N)=O)NC(=O)[C@H](CC(C)C)NC(=O)[C@H]([C@@H](C)CC)NC(=O)[C@H](C)NC(=O)[C@@H]2CCCN2C(=O)[C@H](Cc2ccccc2)NC(=O)[C@H](Cc2ccc(O)cc2)NC(=O)[C@H](CCCCNC(=O)CN2CCN(CC(=O)O)CCN(CC(=O)O)CCN(CC(=O)O)CC2)NC(=O)[C@H](CCCNC(=N)N)NC1=O [UPAR-427] (Hexanoyl-DLCRK(DOTA)YFPAILC-NH2; disulfide 3-12)

>  <result>
> 95%

$$$$
>  <compound>
CCCCC(=O)N[C@H]1CSSC[C@@H](C(N)=O)NC(=O)[C@H](CCC)NC(=O)[C@H]([C@@H](C)CC)NC(=O)[C@@H]2C[C@@H](O)CN2C(=O)[C@@H]2CCCN2C(=O)[C@H](Cc2ccccc2)NC(=O)[C@H](Cc2ccc(O)cc2)NC(=O)[C@H](CCCCNC(=O)CN2CCN(CC(=O)O)CCN(CC(=O)O)CCN(CC(=O)O)CC2)NC(=O)[C@H]([C@@H](C)O)NC1=O [UPAR-301] (Pentanoyl-CTK(DOTA)YFP[Hyp]I[Nva]C-NH2; disulfide 1-10)

>  <result>
91%

$$$$
>  <compound>
CC[C@H](C)[C@@H]1NC(=O)[C@@H](C)NC(=O)[C@@H]2CCCN2C(=O)[C@H](Cc2ccccc2)NC(=O)[C@H](Cc2ccc(O)cc2)NC(=O)[C@H](CCC(N)=O)NC(=O)[C@H](CCCNC(N)=O)NC(=O)[C@@H](NC(=O)[C@H](CC(C)C)NC(=O)CN2CCN(CC(=O)O)CCN(CC(=O)O)CCN(CC(=O)O)CC2)CSSC[C@@H](C(N)=O)NC(=O)[C@H](CC(C)C)NC1=O [UPAR-441] ({DOTA}-LC[Cit]QYFP[dA]ILC-NH2; disulfide 2-11)

>  <result>
83%

$$$$
>  <compound>
CC[C@H](C)[C@@H]1NC(=O)[C@@H](C)NC(=O)[C@@H]2CCCN2C(=O)[C@H](Cc2ccccc2)NC(=O)[C@H](Cc2ccc(O)cc2)NC(=O)[C@H](CCC(N)=O)NC(=O)[C@H](CCCNC(N)=O)NC(=O)[C@@H](NC(=O)[C@H](CC(C)C)NC(=O)COCCOCCNC(=O)CN2CCN(CC(=O)O)CCN(CC(=O)O)CCN(CC(=O)O)CC2)CSSC[C@@H](C(N)=O)NC(=O)[C@H](CC(C)C)NC1=O [UPAR-245] ({DOTA-AEEA}-LC[Cit]QYFP[dA]ILC-NH2; disulfide 2-11)

>  <result>
74%

$$$$
